- System: L1210 leukemia ip in BDF1 mice, survival T/C
- testMethodNotes: NCI In Vivo Anticancer Drug Screen. Data for tumor model L1210 Leukemia (intraperitoneal) in B6D2F1 (BDF1) mice
- measurementParameters: endpoint: mean survival time; dose: 200.0 mg/kg/injection; schedule: Q01DX001 (ip); vehicle: saline; higher = longer survival
Inconclusive results and toxic doses are left out.
recordedEndpoint: T/C

Consider the reported T/C for these compounds:
INSERT INTO measurements (compound, testtarget, recordedendpoint, recordedresult) VALUES
  ('Cc1ccc(N=C2CCCCC2Nc2ccc(C)cc2)cc1.[Cl][Zn][Cl] (stereo unspecified)', 'L1210 leukemia ip in BDF1 mice, survival T/C', 'T/C', '101 % of control'),
  ('CC(=O)NC1CCCC(C)N1 (stereo unspecified)', 'L1210 leukemia ip in BDF1 mice, survival T/C', 'T/C', '100 % of control'),
  ('O=c1cc(CC(O)(c2ccccc2)c2ccccc2)cc[nH]1', 'L1210 leukemia ip in BDF1 mice, survival T/C', 'T/C', '95 % of control'),
  ('O=C(N/N=C/c1cccnc1)C(O)C(O)C(O)C(O)CO (stereo unspecified)', 'L1210 leukemia ip in BDF1 mice, survival T/C', 'T/C', '103 % of control'),
  ('CCCSc1ccccc1N1CCNCC1', 'L1210 leukemia ip in BDF1 mice, survival T/C', 'T/C', '101 % of control');

Please turn your attention to the following entry.
For the compound `COc1ccc(Cc2ccc3c(C)cc(Cl)nc3c2)cc1` , what T/C is on record?
103 % of control

Taken from PubChem BioAssay AID248.
